From: PubChem BioAssay (NCI)

Test: NCI Yeast Anticancer Drug Screen. Data for the sgs1 mgt1 strain (AID 161);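 further: 0% = growth of cultures given vehicle only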
Details: S. cerevisiae sgs1 mgt1 strain, at 5.0 µM (retest, dose inferred, filed as 0.5)
About 79,000 compounds went through this panel and 15% of them were active in at least one assay; those are over-represented in the sample as a whole. The source made the active and inactive calls. No stated cut-off is given here; in the data, active means growth inhibition above about 70%; inactive means the rest.
Choose one outcome from this list and give only that: active, inactive

Below are worked cases with known answers.
| structure_string | class_label |
| --- | --- |
| O=c1oc(-c2ccccc2Br)ns1 | inactive |
| Cc1cc(O)c(C=NC(=S)C(N)=S)c(=O)o1 | inactive |
| CC1=CC(=O)[C@@H](O)[C@]2(C)[C@H]3[C@@]4(O)OC[C@]35[C@H]([C@@H](C)[C@H]4O)[C@@H](OC(=O)C(C)(C)CO)C(=O)O[C@@H]5C[C@@H]12 | inactive |
| C/C=C\c1cc2c(cc1CC#N)OCO2 | inactive |

API: the following record is the query input.
Asked: Query: recorded result category for CC(=O)NC1=C(Sc2ccc(C)cc2)C(=O)c2ccccc2C1=O in this test
Given back: active

* * *

Experiment: NCI Yeast Anticancer Drug Screen. Data for the cln2 rad14 strain (AID 165);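 further: 0% = growth equal to vehicle treated cultures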
Conditions: S. cerevisiae cln2 rad14 strain, at 50.0 µM
This is part of a sample that, as a whole, favours compounds with a hit. Of some 79,000 tested, about 15% had one in any assay. Active and inactive are the calls of the source. Cut-off read from the data, not from the text of the source: active = growth inhibition above about 70%; inactive = the rest.
Choose one outcome from this list and give only that: active, inactive

Asked: Query: recorded result category for Cc1nn(C(=S)S)c(C)c1N=Nc1ccc(Br)cc1 in this test
Given back: active

Asked: Query: recorded result category for CC1c2cc(c3c(c2O)CN([C@@H](C)C2CCCCC2)CO3)C(C)c2cc(c3c(c2O)CN([C@@H](C)C2CCCCC2)CO3)C(C)c2cc(c3c(c2O)CN([C@@H](C)C2CCCCC2)CO3)C(C)c2cc1c1c(c2O)CN([C@@H](C)C2CCCCC2)CO1 (some centres undefined) in this test
Given back: inactive

Asked: Query: recorded result category for COc1ccc(N=Nc2ccc3oc(=O)c(C(=O)Nc4ccc(Cl)cc4)cc3c2)cc1 in this test
Given back: active

Asked: Query: recorded result category for Nc1cc(Br)cc2c1[nH]c1ccc(Br)cc12 in this test
Given back: active

* * *

Experiment: NCI Yeast Anticancer Drug Screen. Data for the mec2-1 strain (AID 157)
Conditions: S. cerevisiae mec2-1 strain, at 5.0 µM (retest, dose inferred, filed as 0.5)
About 79,000 compounds went through this panel and 15% of them were active in at least one assay; those are over-represented in the sample as a whole. Active and inactive are the calls of the source. No stated cut-off is given here; in the data, active means growth inhibition above about 70%; inactive means the rest.
Choose one outcome from this list and give only that: active, inactive

| molecule | class_label |
| --- | --- |
| O=C1NC(=O)C(c2ccccc2)(c2ccccc2)C2CC3c4[nH]c5ccccc5c4CCN3CC12 (stereo not given) | inactive |
| CCc1cc(C)cc(NC(=O)OC2CCCCC2C)c1 (stereo not given) | inactive |
| O=c1oc2ccccc2c(O)c1/C=N\c1nc(-c2ccccc2)cs1 | inactive |

Asked: Query: recorded result category for CCNC(=S)N/N=C/c1ccccn1 in this test
Given back: inactive

Asked: Query: recorded result category for N=C(N)c1ccc(-c2ccc(-c3ccc(C(=N)N)cc3)o2)cc1 in this test
Given back: inactive

Asked: Query: recorded result category for CC(=O)OCC1OC(Sc2ccc3ccccc3c2)C(OC(C)=O)C(OC(C)=O)C1OC(C)=O (stereo not given) in this test
Given back: inactive

Asked: Query: recorded result category for N#Cc1ccc(Cl)cc1[N+](=O)[O-] in this test
Given back: inactive

Asked: Query: recorded result category for CC(=O)CC1(O)C(=O)Nc2ccc(Br)cc21 (stereo not given) in this test
Given back: inactive

* * *

Test: NCI Yeast Anticancer Drug Screen. Data for the rad50 strain (AID 155);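 further: 0% = growth of vehicle-only cultures of the same strain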
Settings: S. cerevisiae rad50 strain growth inhibition; at 5.0 µM (retest, dose inferred, filed as 0.5); stronger effect = higher value
The panel holds about 79,000 compounds, 15% with a hit somewhere; the sample as a whole holds those more often.
property: growth inhibition (%)
The answer is to be given in %; state only the numeric part.

| compound | value_unit | measured_value |
| --- | --- | --- |
| CCN(CC)CCNC(=O)c1ccc(N=Cc2cc(Cl)cc(Cl)c2O)cc1 | % | 48 |
| CC(NNC(=S)N1CCCC1)c1ccccn1 (stereo unspecified) | % | 63 |
| CCOc1ccc2c(ccc(/C=C\c3cc(C)c4cccnc4c3O)[n+]2C)c1 | % | 91 |
| CC(=O)N(O)c1ccc2c(c1)Cc1cc(F)ccc1-2 | % | 75 |
| S=C(N/N=C/c1ccccn1)N1CCCCC1 | % | 99 |
| Cc1ccc(NC(=O)/C(CC(=O)c2sc(Nc3ccc(Cl)c(Cl)c3)nc2C)=N\Nc2ccc([N+](=O)[O-])cc2[N+](=O)[O-])c(C)c1 | % | 1 |

Asked: Recorded growth inhibition for O=c1[nH]c2ccccc2c2oc3ccccc3c12 , please?
Given back: -14

Asked: Recorded growth inhibition for Nc1ccc2c(c1)CN1C(=O)c3ccccc3C1=N2 , please?
Given back: 24

Asked: Recorded growth inhibition for COc1ccc(CC2=CC(=O)C(=O)C=C2C)cc1 , please?
Given back: 2

Asked: Recorded growth inhibition for OCC(CCc1c[nH]c2ccccc12)c1c[nH]c2ccccc12 (stereo unspecified) , please?
Given back: 27

Asked: Recorded growth inhibition for COc1cc2c(cc1O)CCCCC2 , please?
Given back: 4

Asked: Recorded growth inhibition for C1CCC(CC[N+]23CC[N+](CCC4CCCC4)(CC2)C3)C1 , please?
Given back: 1

Asked: Recorded growth inhibition for O=c1[nH]c2cc(Cl)ccc2nc1/C=C(\O)c1ccccn1 , please?
Given back: 20

Asked: Recorded growth inhibition for CCOC(=O)/C=C(\NC1CC(OC2C[C@](O)(C(C)=O)Cc3c(O)c4c(c(O)c32)C(=O)c2c(OC)cccc2C4=O)OC(C)C1O)C(=O)OCC (stereo partly specified) , please?
Given back: 44

Asked: Recorded growth inhibition for N#Cc1c(-c2ccc(Cl)cc2)c(-c2ccc(Cl)cc2)nn(CCOC(=O)CN)c1=O , please?
Given back: 18

Asked: Recorded growth inhibition for ClCc1ccc2ccc3ccc(CCl)nc3c2n1 , please?
Given back: 31

Asked: Recorded growth inhibition for CN(C)c1ccc(C(O)(Cc2cccnc2)c2ccc(N(C)C)cc2)cc1 , please?
Given back: -3

Asked: Recorded growth inhibition for CCCC1(C)C(C#N)(C#N)C1(C#N)C#N , please?
Given back: 98

Asked: Recorded growth inhibition for CCCCN(CCCC)CCC(O)c1cc2c(c3ccccc13)CCCC2 (stereo unspecified) , please?
Given back: 1

Asked: Recorded growth inhibition for S=C(Nc1ccccc1)[S][Sb]([S]C(=S)Nc1ccccc1)[c]1ccccc1 , please?
Given back: -5

Asked: Recorded growth inhibition for Oc1ccc(Cl)cc1-c1ccccc1 , please?
Given back: -1

Asked: Recorded growth inhibition for CC(=O)N[C@H]1CCC2[C@@H]3CCC4=CC(=O)NCC[C@]4(C)C3CC[C@@]21C (stereo partly specified) , please?
Given back: 0

Asked: Recorded growth inhibition for CC(=O)OC1SC(C)(C)n2c1nc1ccccc1c2=O (stereo unspecified) , please?
Given back: 1

Asked: Recorded growth inhibition for CC(Nc1cc(Cl)cc(Cl)c1)c1ccncc1 (stereo unspecified) , please?
Given back: 1

* * *

Test: NCI Yeast Anticancer Drug Screen. Data for the bub3 strain (AID 167)
Settings: S. cerevisiae bub3 mutant strain, at 5.0 µM (retest, dose inferred, filed as 0.5), stronger effect = higher value
Experimental: Growth inhibition of yeast strains with defined genetic alterations is measured as a screen for potential anti-cancer activity. Selected strains with alterations in DNA damage repair or cell cycle control were exposed to compounds and growth inhibition was measured relative to vehicle treated controls. The strain used in this assay is bub3
The panel holds about 79,000 compounds, 15% with a hit somewhere; the sample as a whole holds those more often. Calls of active or inactive are those of the source. Cut-off read from the data, not from the text of the source: active = growth inhibition above about 70%; inactive = the rest.
property: growth inhibition

| compound | growth inhibition |
| --- | --- |
| NC(=S)c1cccc(C2Nc3ccccc3O2)c1 (stereo unspecified) | 47% (inactive) |
| O=C/C=C/c1cc([N+](=O)[O-])ccc1Cl | -80% (inactive) |
| CCCc1nc2ccccc2c(=O)n1/N=C/c1ccccc1O | -2% (inactive) |
| O=c1[nH]c(CN2CCCCC2)nn1-c1ccccc1 | 0% (inactive) |
| CC(=O)OC1C(OC(C)=O)C2C(C)CC3OC(=O)C(C)C3CC2(C)C1OC(C)=O (stereo unspecified) | 9% (inactive) |

Asked: Recorded growth inhibition for N=C(N)c1ccc(OCCCCOc2ccc(N)cc2Cl)cc1 , please?
Given back: 0% (inactive)

Asked: Recorded growth inhibition for Nc1nc(N)c(-c2cccc(C(F)(F)F)c2)c(Cc2cccc(C(F)(F)F)c2)n1 , please?
Given back: -4% (inactive)

Asked: Recorded growth inhibition for O=C1OC2=C(CCc3nc(-c4ccccc4)sc32)C(N(c2ccccc2)c2ccccc2)C1(Cl)Cl (stereo unspecified) , please?
Given back: 0% (inactive)

Asked: Recorded growth inhibition for CC(=O)N=C1N(/C=C2\C(=O)Oc3ccccc3C2=O)C(=O)/C(=C/c2ccc(Cl)cc2Cl)N1C , please?
Given back: 23% (inactive)

Asked: Recorded growth inhibition for O=C1C=C(c2cccc(-c3ccccc3)c2)CCC1 , please?
Given back: 2% (inactive)

Asked: Recorded growth inhibition for CCOC(=O)N(c1ccccc1)N(CC)C(=O)/C(C)=N/Nc1ccc([N+](=O)[O-])cc1 , please?
Given back: -10% (inactive)
